- TARGET_UNDER_TEST: ITFG1; also: reference of the scale not given here
- EXPERIMENT_SUMMARY: pooled miR-30 sensor sort-seq; sequence = guide strand
- TEST_CONTEXT: shRNA
READOUT_KIND: sensor-assay potency score (higher = more potent)
// keep it numeric: no unit symbol after the value

Query :: Dear colleague, I am looking for the recorded sensor-assay potency score (higher = more potent) of the following sequence: "TATACATGATATAAGGTCCAGG"
Result :: -0.949

Query :: Looking for the measured sensor-assay potency score (higher = more potent) of "TTTATCTTCACAGCCTGGCAGT" , can you help?
Result :: -0.637

Query :: What does the data say about its sensor-assay potency score (higher = more potent)? Entry: "TACTTGTAGTGGTCAATGCTGG"
Result :: -0.574

Query :: I'd like to know its sensor-assay potency score (higher = more potent). The sequence in question is "TATTGCTGAAATCTTGTAGGAC"
Result :: 0.541

Query :: Look up sensor-assay potency score (higher = more potent): "TTCGTATAGATTTTTCTCCAGA"
Result :: -0.843

Query :: If you can, please state the reported sensor-assay potency score (higher = more potent) value of "TATCAATGCACTGTGATTCTTG" .
Result :: 0.396

Query :: Endpoint output: sensor-assay potency score (higher = more potent) of "TAATGTTTGATTTTGTCCCCAG" . Value?
Result :: -0.0623

Query :: # query: sensor-assay potency score (higher = more potent) of entry "TTTAGGTCTGTCAGCTCCCAGT"
Result :: -0.933
